Molecular target: UniProt P23975
Sequence (P23975 whole entry): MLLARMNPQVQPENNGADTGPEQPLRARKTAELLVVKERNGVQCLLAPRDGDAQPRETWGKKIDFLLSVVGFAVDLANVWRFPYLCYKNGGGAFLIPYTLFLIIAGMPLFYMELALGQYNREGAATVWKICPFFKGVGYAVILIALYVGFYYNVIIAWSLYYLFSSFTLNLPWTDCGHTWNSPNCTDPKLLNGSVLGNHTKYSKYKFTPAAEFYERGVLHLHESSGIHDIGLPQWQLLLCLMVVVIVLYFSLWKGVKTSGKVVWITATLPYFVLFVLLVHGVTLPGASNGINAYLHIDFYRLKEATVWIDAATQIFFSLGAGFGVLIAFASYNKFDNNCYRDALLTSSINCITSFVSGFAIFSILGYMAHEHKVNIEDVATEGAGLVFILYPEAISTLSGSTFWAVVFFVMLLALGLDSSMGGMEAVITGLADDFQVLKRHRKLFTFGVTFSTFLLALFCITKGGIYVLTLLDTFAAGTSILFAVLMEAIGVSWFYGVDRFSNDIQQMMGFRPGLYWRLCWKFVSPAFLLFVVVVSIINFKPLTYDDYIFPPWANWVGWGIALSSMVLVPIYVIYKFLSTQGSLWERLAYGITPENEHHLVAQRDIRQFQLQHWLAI
Assay: [3H]NE accumulation (radiolabeled transport assay) in hNET-transfected HEK-293 cells
Settings: Cheng-Prusoff correction, non-specific by 10 μM desipramine, N=5, mean±S.E.M., read-out: Ki, inhibition of [3H]NE accumulation
measure-name: pKi
Kindly note that pKi refers to -log10 of the concentration in mol/L and answer with the value alone.

CN(C)c1ccc(C=Cc2cc[n+](C)cc2)cc1 [ASP^+]    6.11

Moving on to another molecule below.
(Q) Find the recorded pKi belonging to C[n+]1ccc(-c2ccccc2)cc1 [MPP^+] and report it.
(A) 6.22

Sourced from patent US7318917B2
